IC50 values recorded for His-EBNA1 (DNA binding domain of EBNA1, amino acids 459-607) (Epstein-Barr virus)
Counter-ions that a name gives are not always drawn.
Property Name: IC50

>>> observed("O=C(O)c1cccc(C#Cc2ccccc2)c1-c1ccc2[nH]ccc2c1")
"1 to 10 µM"
>>> observed("O=C(O)c1cccc(C#CC2CC2)c1-n1cccc1")
"< 1 µM"
>>> observed("COc1ccc(-c2c(C#Cc3ccccc3)cccc2C(=O)O)cc1")
"1 to 10 µM"
>>> observed("NC(=O)c1cccc(C#Cc2cccc(C(=O)O)c2-n2cccc2)c1")
"< 1 µM"
>>> observed("O=C(O)c1cccc(C#Cc2cccc(O)c2)c1-c1ccc2cn[nH]c2c1")
"1 to 10 µM"
>>> observed("C(#Cc1ccc2[nH]ccc2c1)c1cccc(-c2nnn[nH]2)c1")
"1 to 10 µM"
>>> observed("O=C(O)c1cccc(C#CCCc2ccccc2)c1-n1cccc1")
"< 1 µM"
>>> observed("COc1cccc(-c2cn(-c3c(C#Cc4ccccc4)cccc3C(=O)O)nn2)c1")
"10 to 100 µM"
>>> observed("Nc1c(C#Cc2cccc(C(=O)O)c2)cccc1C(=O)O [Entry 279, trifluoroacetate salt]")
"10 to 100 µM"
>>> observed("O=C(O)c1cccc(C#Cc2ccc3cn[nH]c3c2)c1-n1cccc1")
"1 to 10 µM"
>>> observed("O=C(O)c1cccc(C#Cc2ccncc2)c1-n1ccnc1")
"100 to 1000 µM"
>>> observed("O=C(O)c1cccc(C#Cc2c[nH]c3ncccc23)c1-n1cccc1")
"< 1 µM"
>>> observed("CN(C)c1ccc(-c2c(C#Cc3ccncc3)cccc2C(=O)O)cc1")
"10 to 100 µM"
>>> observed("Cn1ccc2cc(-c3c(C#Cc4ccccc4)cccc3C(=O)O)ccc21")
"1 to 10 µM"
>>> observed("O=C(O)c1cccc(C#Cc2ccccc2)c1-c1ccc2c(c1)OCO2")
"10 to 100 µM"
>>> observed("O=C(O)c1cccc(C#Cc2c[nH]c3ccccc23)c1")
"10 to 100 µM"
>>> observed("O=C(O)c1cccc(C#Cc2ccccc2)c1-n1cnc2ccccc21")
"10 to 100 µM"
>>> observed("O=C(O)c1cccc(C#Cc2ccccc2)c1-n1ccnc1")
"10 to 100 µM"
>>> observed("Cn1ccc2cc(-c3c(C#Cc4cscn4)cccc3C(=O)O)ccc21")
"1 to 10 µM"
